test system: RPMI-8226 leukemia; assay: NCI-60 one-dose screen, 48 h (100 = growth as untreated, 0 = no growth, -100 = all killed); details: 10 µM unless noted
About 83,000 compounds went through this panel and 20% of them were active in at least one assay; those are over-represented in the sample as a whole.
Measurement Type: growth (%)
Answer format: numeric, % implied, no suffix.

Examples with answers:
Molecule: CC(=O)Nc1ccc(C(=O)Nc2cc(-c3ccccc3)ccc2N)cc1
Target Desc: RPMI-8226 leukemia
Test Result: 83.6
//
Molecule: O=C(CN1CCOCC1)Nc1ccc2ncnc(Nc3ccc(OCc4cccc(F)c4)c(Cl)c3)c2c1
Target Desc: RPMI-8226 leukemia
Test Result: 44.7
//
Molecule: CC(=O)N1c2ccccc2NC2=C(C(=O)N(C)C2(C)C)C1C (stereo not given)
Target Desc: RPMI-8226 leukemia
Test Result: 12.6
//
Molecule: COc1ccc(C(=O)c2cc3c(N)c(C(=O)Nc4ccc(Br)cc4)sc3nc2C)cc1
Target Desc: RPMI-8226 leukemia
Test Result: 77
//
Molecule: COc1cc(CNC(=O)CCCCC[P+](c2ccccc2)(c2ccccc2)c2ccccc2)c(OC)c2c1OCO2
Target Desc: RPMI-8226 leukemia
Test Result: 1.67

Param readout = growth; param system = RPMI-8226 leukemia; param query = CC1(C)CN(Cc2ccccc2)CCN1Cc1ccccc1 ; response: value 98

Param readout = growth; param system = RPMI-8226 leukemia; param query = O=S(=O)(NCCCNc1nccc(-c2c(-c3cccc(O)c3)nc3occn23)n1)c1ccc(Br)cc1 ; response: value 86.4

# returns recorded growth (system: RPMI-8226 leukemia) for COc1ccc(/C=C2\COc3ccc(-c4ccccc4)cc3C2=O)cc1O -21.6

Return growth measured with RPMI-8226 leukemia given this molecule: O=C(Nc1ccc(Nc2ncccn2)cc1)NC1C=c2ccccc2=CC1 (stereo not given) 100

What is its growth for RPMI-8226 leukemia? Entry: CC(=O)OCC(=O)C1(O)C(C)CC2C3C=C(C)C4=Cc5c(cnn5-c5ccccc5)CC4(C)C3C(O)CC21C (stereo not given) -18.3

----------
Measured growth, listed per entry for reference.
system: TK-10 renal; experiment: NCI-60 one-dose screen, 48 h (100 = growth as untreated, 0 = no growth, -100 = all killed); settings: 10 µM unless noted
This is part of a sample that, as a whole, favours compounds with a hit. Of some 83,000 tested, about 20% had one in any assay.
Just the number please, in %, no unit attached.

Example compounds with recorded growth:
Compound: COC(=O)C1=C(C(=O)ONCCN(C)C)C2C=CC1(C(Cc1ccccc1)Nc1ccc(F)cc1)O2 (stereo unspecified)
Test Result: 65.4

Compound: O=C(O)CCCCCCCCCCCCCCC(=O)O
Test Result: 90.4

Compound: O=c1[nH]c2c(s1)CCCC2CN1CCCCC1 (stereo unspecified)
Test Result: 93

Compound: CC(=O)c1c(-c2ccc(OC(F)(F)F)cc2)nc2ccccn12
Test Result: 6.58

Compound: FC(F)(F)c1cccc(Nc2ccccc2)c1
Test Result: 94

Compound: CCCCc1ccc(Nc2nnc(SCC(=O)NC(=O)NCC)s2)cc1
Test Result: 107

Compound: COc1ccc(C(=O)c2cc3c(N)c(C(=O)Nc4ccc(Br)cc4)sc3nc2C)cc1
Test Result: 98.8

Compound: O=S(=O)(NCCNc1nccc(-c2c(-c3ccc(F)c(O)c3)nc3occn23)n1)c1ccccc1
Test Result: 121

Consider the compound shown here: BrC(Br)(Br)c1cnc2ccccc2n1 What is its recorded growth? -57.9

Query (compound): COc1cc(Nc2cc(O)c3c(=O)cc(-c4ccccc4)oc3c2)cc(OC)c1 ; field requested: growth 44

Look at this compound and give its reported growth. N#Cc1c(Nc2ccccc2)nn2cc(-c3nc4ccccc4s3)c(N)nc12 107
